# Target desc: EGFR on A431 epidermoid carcinoma cells (human, UniProt P00533 25-1210)
# Test protocol: cell-based or functional assay
Quantity name: Maximum Cell Killing (%)
Put your answer as a value accompanied by its unit after it.

H1H151P (antibody, human IgG1, V domains shown, Human IgG1 Fc (H1H)) VH: QVQLQESGPGLVNPSQTLSLTCTVSGGSINSGDYYWSWVRQHPGKGLEWIGYIYYSGSTYYNPSLKSRVTISVDTSKNQFSLKLSSVTVADTAVYYCARVGYSKGYFDSWGQGTLVTVSS VL: DIQMTQSPSTLSASVGDRVTITCRASESISSWLAWYQQKPGKAPKVLIYDASSLESGVPSRFSGSGSGTEYTLTISSLQPDDFASYYCQQYKSYWTFGQGTKVEIK = 68%
H1H089N (antibody, human IgG1, V domains shown, Tested in human IgG1 Fc format (H1H); also called H1M089N) VH: EVQLVESGGGLVQPGRSLRLSCAASGFTFDDYAMHWVRQAPGKGLEWVSGINWNSDKIAYADSVKGRFTISRDNAENSLFLQMNSLRPEDTALYYCVKRGDFWTDYYDYWGQGTLVTVSS VL: DIVMTQSPLSLPVTPGEPASISCRSSQSLLHSNGHNYLDWYLQKPGQSPHLLIYLVSNRASGVPDRFSGSGSGTDFTLKISRVEAEDVGVYYCIQALQTPWTFGQGTKVEIK = 53%
H1H144P (antibody, human IgG1, V domains shown, Human IgG1 Fc (H1H)) VH: QVQLQESGPGLVMPSQTLSLTCTVSGGSINSGDYYWNWIRQHPGKGLEWIGYIYYSEISYHNPSLKSRVTTSIDTSTNQFSLKLSSVTAADTAVYYCARDRVELRAFDIWGQGTMVTVSS VL: DIQMTQSPSSLSASVGDRVTITCQASQDISNYLNWYQQKPGKAPKLLIYDASNLETGVPSRFSGSGSGTDFTFTISSLQPEDIATYYCQHYDSLPLTFGQGTRLEIK = 43%
H1H157P (antibody, human IgG1, V domains shown, Human IgG1 Fc (H1H)) VH: QVQLVESGGGVVQPGRSLRLTCKASGFTFSIYGINWVRQASGKGLDWVAVISDDGSDKKYADSVKGRFTISRDNSKNTVYLEMSRLRSEDTAVYFCAKDRFTGNHYYGMDVWGQGTTVTVSS VL: DIQMTQSPSSLSASVGDRVSITCRASQDISDYLAWFQQKPGKAPKSLIYAASILQNGVPSRFSGSGSGTDFTLTISSLQPEDFALYYCHQYNRFPWTFGQGTKVEIK = 36%

Kindly review the next binder as well.
Returns the measured Maximum Cell Killing (%) for the input binder. Input: H1H171P (antibody, human IgG1, V domains shown, Human IgG1 Fc (H1H)) VH: QVQLVESGGGVVQPGRSLRLSCAASGFTFSIYGMNWVRQGPGKGLDWVAVISDDGSNKDYVDSVRGRFTISRDNSKNTLYLQMNSLSAEDTAVYYCAKDRITGTHYYGMDVWGQGTTVTVSS VL: DIQMTQSPSSLSASVGDRITITCRASQDIANYLAWFQQKPGNAPTSLIYAASILQSGVPSKFSGSGSGTDFTLTITSLQPEDFASYYCQQYNRKPWTFGRGTKVEIK
27%
